Data provenance is patent US20200024330A1.

assay target: HIV-1 Env of isolate MGRM-A-012 (HIV-1)
assay text: cell-based or functional assay
Would you mind telling me the reported IC50 (µg/mL), pseudovirus neutralization of each entry?
The number alone won't do; follow it with the unit.

See these solved cases before continuing.
- binder: "PGT-125 (antibody, V domains shown) VH: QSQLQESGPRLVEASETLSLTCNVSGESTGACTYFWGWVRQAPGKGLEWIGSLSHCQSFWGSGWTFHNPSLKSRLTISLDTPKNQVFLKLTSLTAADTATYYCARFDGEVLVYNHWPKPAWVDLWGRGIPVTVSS VL: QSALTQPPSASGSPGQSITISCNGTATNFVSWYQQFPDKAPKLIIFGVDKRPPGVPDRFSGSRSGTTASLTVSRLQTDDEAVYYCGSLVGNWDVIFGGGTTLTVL"
  IC50 (µg/mL), pseudovirus neutralization: "0.177 µg/mL"
- binder: "PGT-123 (antibody, V domains shown) VH: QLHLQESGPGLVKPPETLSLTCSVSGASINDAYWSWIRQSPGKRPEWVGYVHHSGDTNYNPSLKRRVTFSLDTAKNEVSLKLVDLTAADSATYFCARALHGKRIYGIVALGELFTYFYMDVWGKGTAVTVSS VL: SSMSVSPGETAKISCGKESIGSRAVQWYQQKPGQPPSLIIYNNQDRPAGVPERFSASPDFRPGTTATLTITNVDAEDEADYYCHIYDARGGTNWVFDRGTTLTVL"
  IC50 (µg/mL), pseudovirus neutralization: "0.192 µg/mL"
- binder: "PGT-126 (antibody, V domains shown) VH: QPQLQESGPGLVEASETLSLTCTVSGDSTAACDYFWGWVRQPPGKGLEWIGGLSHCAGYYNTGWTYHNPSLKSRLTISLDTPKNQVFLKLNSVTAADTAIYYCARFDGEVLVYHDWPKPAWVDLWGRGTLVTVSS VL: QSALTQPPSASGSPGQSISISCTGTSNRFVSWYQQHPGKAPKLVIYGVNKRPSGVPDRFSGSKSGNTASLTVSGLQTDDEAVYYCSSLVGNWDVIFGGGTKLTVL"
  IC50 (µg/mL), pseudovirus neutralization: "0.097 µg/mL"

With those in mind, consider the next binder.
Quick one: IC50 (µg/mL), pseudovirus neutralization of PGT-127 (antibody, V domains shown) VH: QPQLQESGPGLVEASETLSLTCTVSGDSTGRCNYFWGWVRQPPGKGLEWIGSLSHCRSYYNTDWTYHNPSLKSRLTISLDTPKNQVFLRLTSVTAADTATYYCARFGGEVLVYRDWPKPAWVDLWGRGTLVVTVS VL: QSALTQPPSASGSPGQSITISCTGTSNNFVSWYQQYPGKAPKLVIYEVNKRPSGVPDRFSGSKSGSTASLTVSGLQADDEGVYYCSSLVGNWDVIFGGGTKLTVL ?
0.105 µg/mL
